Entries and their measured Ki follow.
Study target: 5-hydroxytryptamine receptor 1A (Rattus norvegicus, UniProt P19327)
Sequence (P19327 whole entry): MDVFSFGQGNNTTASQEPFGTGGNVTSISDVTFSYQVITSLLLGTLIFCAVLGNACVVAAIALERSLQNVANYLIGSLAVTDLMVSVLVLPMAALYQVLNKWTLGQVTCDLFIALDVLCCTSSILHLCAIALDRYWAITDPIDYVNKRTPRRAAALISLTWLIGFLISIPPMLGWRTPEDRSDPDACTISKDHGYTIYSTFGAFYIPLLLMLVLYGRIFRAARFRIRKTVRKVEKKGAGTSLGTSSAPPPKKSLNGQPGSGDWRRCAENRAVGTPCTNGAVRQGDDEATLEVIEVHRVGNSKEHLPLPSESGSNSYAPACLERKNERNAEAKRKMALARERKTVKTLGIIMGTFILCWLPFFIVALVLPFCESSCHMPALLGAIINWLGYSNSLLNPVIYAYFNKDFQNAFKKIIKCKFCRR

Compound | Unit string | Ki
CCCCCC(C)NC(=O)[C@@H]1C=C2c3cccc4[nH]cc(c34)C[C@H]2N(C)C1 (some centres undefined) | nM | 14
CCCCC[C@@H](C)NC(=O)[C@@H]1C=C2c3cccc4[nH]cc(c34)C[C@H]2N(C)C1 | nM | 3.3
CCCC(C)NC(=O)[C@@H]1C=C2c3cccc4[nH]cc(c34)C[C@H]2N(C)C1 (some centres undefined) | nM | 8
CCC(CC)NC(=O)[C@@H]1C=C2c3cccc4[nH]cc(c34)C[C@H]2N(C)C1 | nM | 2.1
